assay: liver-stage malaria parasite growth inhibition, primary screen, cell-based, HepG2, luciferase luminescence, HepG2 viability (AID 624349);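 note: 100% = mean of DMSO negative control wells on the same plate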; conditions: P. berghei liver stage in HepG2, luciferase luminescence, concentration not given here; stronger effect = lower value
We begin with a simple list: items and their reported parasite load remaining.

smiles-repr	result-units	parasite load remaining
CO[C@H]1C=CO[C@@]2(C)Oc3c(C)c(O)c4c(O)c(c(C=NN5CCN(C6CCCC6)CC5)c(O)c4c3C2=O)NC(=O)C(C)=CC=C[C@H](C)[C@H](O)[C@@H](C)[C@@H](O)[C@@H](C)[C@H](OC(C)=O)[C@@H]1C	%	21.3
CO[C@H]1C=CO[C@@]2(C)Oc3c(C)c(O)c4c(O)c(c5c(nc6cc(C)ccn65)c4c3C2=O)NC(=O)C(C)=CC=C[C@H](C)[C@H](O)[C@@H](C)[C@@H](O)[C@@H](C)[C@H](OC(C)=O)[C@@H]1C	%	97.9

* * *

assay: differential killing of epithelial or mesenchymal cells, primary screen, imaging, PC-3E GFP, TEM4-18 mCherry, co-culture (AID 1345086); settings: imaging cell counts, at 1 µM, actives lie on both sides, counts scaled to control wells, 1 = unselective;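 note: normalised mesenchymal count divided by normalised epithelial count so high means epithelial killing; cells exposed to compound for 72 h before imaging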
Non-standard residues stand in square brackets, D forms with d. Residues, ends and D or L forms follow the SMILES beside them. pGlu = O=C1CC[C@@H](C(=O)O)N1; Thz = O=C(O)[C@@H]1CSCN1
// NB: equality with 1 counts as false (0); only red/green cell ratio (normalised) strictly below is true (1)

compound	class-name
COC(=O)c1cn(C2CC2)c2c(OC)c(F)c(F)c(N)c2c1=O	false (0)
CC(=O)Oc1cc(OC(C)=O)c2c(c1)O[C@H](c1ccc(OC(C)=O)c(OC(C)=O)c1)[C@@H](OC(C)=O)C2	true (1)
NC[C@H]1O[C@H](OC2[C@@H](N)C[C@@H](N)[C@H](O[C@H]3O[C@H](CO)[C@@H](O)[C@H](N)[C@H]3O)[C@H]2O)[C@H](O)[C@@H](O)[C@@H]1O (some centres undefined)	false (0)
CCC(/C=C/[C@@H](C)[C@H]1CCC2C3CC=C4C[C@@H](O)CC[C@]4(C)C3CC[C@@]21C)C(C)C (some centres undefined)	false (0)
CC(=O)O[C@H]1C[C@@]2(C)[C@@H](C[C@@H](O)C3[C@]2(C)CC[C@H]2[C@H](C)[C@H](O)CC[C@]32C)/C1=C(/CCC=C(C)C)C(=O)O (some centres undefined)	false (0)
Oc1cc2c(cc1O)C1c3ccc(O)c(O)c3OCC1(O)C2 (centres undefined)	false (0)
NC(=O)C(c1ccccc1)(c1ccccc1)C1CCN(CCc2ccc3c(c2)CCO3)C1 (centres undefined)	false (0)
COc1ccc(-c2cc(=O)c3c(O)cc(OC)cc3o2)cc1	false (0)
CC(=O)C(C)(C)[C@H]1OC2CC[C@@]3(C)[C@@](O)(CC[C@H]4Cc5c([nH]c6ccccc56)[C@@]43C)C2=CC1=O (some centres undefined)	true (1)
Cc1[nH]cc[n+]1CC1CCC2C(C1=O)c1ccccc1N2C (centres undefined)	true (1)
CC(O)(CC(=O)O)CC(=O)O	false (0)
CC1(C)C(C=C(Cl)Cl)C1C(=O)OCc1cccc(Oc2ccccc2)c1 (centres undefined)	true (1)
CCN1CCN(C(=O)NC(C(=O)NC2C(=O)N3C(C(=O)O)=C(CSc4nnnn4C)CSC23)c2ccc(O)cc2)C(=O)C1=O (centres undefined)	false (0)
NCC1O[C@@H](OC2C(N)C[C@@H](N)C(O)[C@H]2OC2OC(CO)C(OC3OC(CN)[C@@H](O)C(O)[C@H]3N)C2O)C(N)[C@@H](O)C1O (some centres undefined)	false (0)
O=C1OCC[C@@H]1Oc1ccc(Oc2cnc3ccc(Cl)cc3n2)cc1	true (1)
CC(C)(O)[C@@H]1CC[C@](C)([C@H]2[C@@H](O)C[C@@]3(C)C4C[C@H](O[C@@H]5O[C@H](CO)[C@@H](O)[C@H](O)[C@H]5O)C5C(C)(C)[C@@H](O[C@@H]6OC[C@@H](O)[C@H](O)[C@H]6O)CC[C@@]56C[C@@]46CC[C@]23C)O1 (some centres undefined)	true (1)
CC(=O)O[C@H]1CC[C@@]2(C)C(C[C@@H](OC(C)=O)[C@@]3(C)C4=CC(=O)O[C@@H](c5ccoc5)[C@]4(C)CCC23)C1(C)C (some centres undefined)	true (1)
NCC1O[C@@H](OC2C(N)C[C@@H](N)C(OC3OC(CO)[C@@H](O)C(N)[C@H]3O)[C@H]2O)C(O)[C@@H](O)C1O (some centres undefined)	false (0)
O=c1c(O)cccc2cc(O)c(O)c(O)c12	true (1)
CN(C)CCCC1(c2ccc(F)cc2)OCc2cc(C#N)ccc21 (centres undefined)	false (0)
Cc1cc(O)c(C=O)c2c1C(=O)Oc1c(COC(=O)/C=C/C(=O)O)c(O)c(C(=O)O)c(C)c1O2	false (0)
CCC[C@@H]1Cc2cc3c(-c4c(O)cc(O)c5c(O)c6c(cc45)C[C@@H](CCC)OC6=O)c(O)cc(O)c3c(O)c2C(=O)O1	true (1)
O=C1C2CC3CC1CC(O)(C3)C2	true (1)
C[C@]12CCC(=O)C=C1CCC1C2[C@@H](O)C[C@@]2(C)C1CC[C@]2(O)C(=O)COC(=O)CCC(=O)O (some centres undefined)	false (0)
O=c1ccn([C@@H]2O[C@H](COP(=O)(O)OP(=O)(O)OP(=O)(O)O)[C@@H](O)[C@H]2O)c(=O)[nH]1	false (0)
O=C(O)CS	false (0)
CC(=O)Nc1ccc(OC(C)=O)cc1	true (1)
C#C[C@]1(O)CCC2C3CCC4=Cc5oncc5C[C@]4(C)C3CC[C@@]21C (some centres undefined)	false (0)
CN[C@@H]1C(OC2[C@H](O[C@H]3[C@H](O)[C@@H](O)[C@H](N=C(N)N)[C@@H](O)[C@@H]3N=C(N)N)OC(C)[C@]2(O)CO)OC(CO)C(O)C1O (some centres undefined)	false (0)
O=c1cc(-c2ccccc2)oc2ccc(O)cc12	false (0)
O=C1CC[C@@H](C(=O)N2CSC[C@H]2C(=O)O)N1 ([pGlu]-[Thz]-OH)	true (1)
O=C(NCC[C@H](O)C(=O)O)OCc1ccccc1	false (0)
CC(=O)OCC1O[C@H](Sc2ccc(C)cc2)[C@@H]2[C@@H](OC(=O)N2C(C)=O)C1OC(C)=O (some centres undefined)	true (1)

Hey, just so you know, these numbers are from PubChem BioAssay.
